Experiment: Cytotoxicity / cell survival in Raw264.7 cells
Conditions: mouse
metricName: IC50

Study these solved cases before continuing.
Quick one: IC50 for O=C(O)/C=C/CF ?
> 288 µM

Now try O=C1C[C@H](O)CO1 [Compound 4, (S)-3-hydroxy-γ-butyrolactone] .
> 98 µM

Same question, O=C1OCCC1O (racemic) [Compound 6, (R/S)-2-hydroxy-γ-butyrolactone] this time
> 98 µM

// below: IC50 requested for another molecule
// returns reported IC50 for input O=C1C[C@@H](O)CO1 [Compound 5, (R)-3-hydroxy-γ-butyrolactone]
> 98 µM

---

Assay: Cytotoxicity / cell survival in Raw264.7 cells
Conditions: mouse, RAW264.7 macrophage cells
# pIC50 per entry
Answer as the number alone; pIC50 is minus log10 of concentration in mol/L.

What value of pIC50 has been recorded for this entry: O=C(O)/C=C/CBr
4.46

Others:
Find the recorded pIC50 belonging to O=C(O)/C=C/CI and report it.
5.00

Can you handle O=C(O)/C=C/CCl next?
4.10

Origin of the recorded values: paper PMC3361693
